- Tested on: Caco-2 cells
- ASSAY_OVERVIEW: High throughput Caco-2 permeability
- Type: in vitro ADME
- CONDITION_DESCRIPTION: apical to basolateral, 10 µmol/l, 2 h
Papp A→B under 3 ×10⁻⁶ cm/s gets 1, anything at or over 3 ×10⁻⁶ cm/s gets 0.

stdin: Answer whether the molecule FC(F)(F)c1ccc2c(NCCCNCc3ccco3)ccnc2c1 has Papp A→B strictly less than 3 ×10⁻⁶ cm/s
stdout: 0

stdin: Answer whether the molecule FC(F)(F)c1cc(-c2ccc3c(NCCCNCc4ccc5[nH]ccc5c4)ccnc3c2)cc(C(F)(F)F)c1 has Papp A→B strictly less than 3 ×10⁻⁶ cm/s
stdout: 1

stdin: Answer whether the molecule Clc1ccc2c(NCCCNCc3ccc4[nH]ccc4c3)ccnc2c1 has Papp A→B strictly less than 3 ×10⁻⁶ cm/s
stdout: 0

stdin: Answer whether the molecule FC(F)(F)c1ccc2c(NCCCNCc3ccc4c(c3)OCO4)ccnc2c1 has Papp A→B strictly less than 3 ×10⁻⁶ cm/s
stdout: 0

stdin: Answer whether the molecule Brc1ccc2c(NCCCNCc3ccc4[nH]ccc4c3)ccnc2c1 has Papp A→B strictly less than 3 ×10⁻⁶ cm/s
stdout: 0

stdin: Answer whether the molecule C=CC(=O)N(CCCNc1ccnc2ccccc12)Cc1ccc2[nH]ccc2c1 has Papp A→B strictly less than 3 ×10⁻⁶ cm/s
stdout: 1

stdin: Answer whether the molecule CC(C)(C)c1ccc(-c2ccc3c(NCCCNCc4ccc5[nH]ccc5c4)ccnc3c2)cc1 has Papp A→B strictly less than 3 ×10⁻⁶ cm/s
stdout: 1

----------
- SUBJECT_OF_TEST: MAGE-A11:PCF11 interaction (GST-MAGE-A11 and FAM-PCF11_4) (Homo sapiens, UniProt P43364)
- Construct: GST-MAGE-A11 MHD (human MAGE-A11 MHD amino acid 218-429); made in house; host or cells: E. coli BL21(DE3)
- Sequence (P43364 218-429): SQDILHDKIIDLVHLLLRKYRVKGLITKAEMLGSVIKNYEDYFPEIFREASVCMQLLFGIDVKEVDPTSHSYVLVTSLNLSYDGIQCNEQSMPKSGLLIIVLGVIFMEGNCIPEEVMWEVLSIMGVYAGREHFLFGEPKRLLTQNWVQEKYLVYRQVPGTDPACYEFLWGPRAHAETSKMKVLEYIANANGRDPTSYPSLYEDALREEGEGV
- ASSAY_OVERVIEW: TR-FRET primary / single point screen at 15 µM
- Type: binding
- CONDITION_DESCRIPTION: single point TR-FRET screening of quinoline compounds against MAGE-A11:PCF11; 15 µM
MEASURED_PROPERTY: percent inhibition (TR-FRET)
// return just the number, without any unit appended

These solved cases illustrate the format of a correct answer.
| COMPOUND | percent inhibition (TR-FRET) |
| --- | --- |
| Clc1ccc2c(NCCCN(Cc3ccccc3)Cc3nccs3)ccnc2c1 | -4.148 |
| Clc1ccc2c(NCCCNCC3CC3)ccnc2c1 | 11.4651 |
| CCCN(CCCNc1ccnc2cc(C(F)(F)F)ccc12)Cc1ccc(OC)c(OC)c1 | 14.6566 |

Now examine the next entry.
stdin: Could you share which percent inhibition (TR-FRET) value was measured for CCCN(CCCNc1ccnc2cc(Cl)ccc12)Cc1ccc(Br)o1 ?
stdout: 14.4758

----------
# percent inhibition (TR-FRET) per entry
- SUBJECT_OF_TEST: MAGE-A11:PCF11 interaction (GST-MAGE-A11 and FAM-PCF11_4) (Homo sapiens, UniProt P43364)
- Construct: GST-MAGE-A11 MHD (human MAGE-A11 MHD amino acid 218-429); made in house; host or cells: E. coli BL21(DE3)
- ASSAY_OVERVIEW: TR-FRET primary / single point screen at 15 µM
- Assay type: binding
- CONDITION_DESCRIPTION: single point TR-FRET screening of 797 quinoline compounds against MAGE-A11:PCF11

| MOLECULE | percent inhibition (TR-FRET) |
| --- | --- |
| CCCCCCN(CCC)CCCNc1c2ccc(Cl)cc2nc2ccc(OC)cc12 [SJ000520963] | -153.702 |
| CCOc1ccc2ncc(C(=O)c3ccccc3)c(N3CCN(CC)CC3)c2c1 [SJ000247283] | -0.2733 |

stdin: Could you share which percent inhibition (TR-FRET) value was measured for CCc1ccc(S(=O)(=O)c2cnc3ccccc3c2N2CCN(c3ccccc3F)CC2)cc1 [SJ000117079] ?
stdout: -56.5833

stdin: Could you share which percent inhibition (TR-FRET) value was measured for COc1ccc2ncc(S(=O)(=O)c3ccccc3)c(N3CCN(c4ccccc4F)CC3)c2c1 [SJ000315263] ?
stdout: -252.464

stdin: Could you share which percent inhibition (TR-FRET) value was measured for COc1ccc2nc3cc(Cl)ccc3c(NCCCNCc3ccco3)c2c1 [SJ000523032] ?
stdout: -165.325
